- Test system: IGROV1 ovarian
- EXPERIMENT NOTES: NCI-60 one-dose screen, 48 h
- SETUP CONDITIONS: 10 µM unless noted
- Experimental: Growth inhibition of the IGROV1 human tumor cell line is measured as a screen for anti-cancer activity. Cells are grown in 96 well plates and exposed to the test compound for 48 hours. Compounds are tested at a single concentration, which is 10^-5 M for most compounds. The reported endpoint is percent growth (GI% or GIPRCNT), where numbers from 0 - 100% represent growth inhibition, and numbers from -100% - 0 represent cell death. For example, a value of 40 represents 60% growth inhibition. […]
The panel holds about 83,000 compounds, 20% with a hit somewhere; the sample as a whole holds those more often. The source made the active and inactive calls. How the source made its calls: active means growth percent below 10; inactive means the rest.
Permitted responses: label 1 (active), label 0 (inactive)

Consider the worked cases shown below.
MOLECULE	CLASS NAME
CC(=O)O[C@H]1C[C@@H]2C(C)(C)C(=O)CC[C@@]2(C)c2ccc(C(C)C)cc21	label 0
CC1C=CC(OC(=O)C(C)(O)CCC(O)(C(=O)OC2CC(O)C(C(C)C)CC2(C)O)C(C)C)(C(C)C)CC1 (stereo unspecified)	label 1
CN(Cc1cc(Br)cc(Br)c1O)Cc1cc(Br)cc(Br)c1O	label 0

Please state the recorded outcome for this molecule: CCN(CC)CCN1C(=O)c2c(c(C)c3c(oc4ccc(OC)cc43)c2C)C1=O
label 0

Please state the recorded outcome for this molecule: Ic1ccccc1I
label 0

Please state the recorded outcome for this molecule: CCCCCCCCCCCCCOC(=O)c1c(C)[nH]c(/C=C2\N=C(c3ccc[nH]3)C=C2OC)c1C
label 0

Please state the recorded outcome for this molecule: O=C(Nc1ccc(Cl)cc1)Oc1c(Cl)c(Cl)c(Cl)c(Cl)c1Cl
label 0

Please state the recorded outcome for this molecule: CCOC(=O)c1[nH]c2c(c1C)-c1[nH]c(=O)c(S(=O)(=O)c3ccccc3)cc1SC2
label 0

The measurements presented in this section are drawn from PubChem BioAssay (NCI).
